PROCEDURE_SUMMARY: soluble on expression in E. coli; label from the status in PepcDB or PDB records
READOUT: soluble on expression in E. coli

Here are 4 sequences together with their reported answers.
GGGGSSGGSTGGGSGSGPVTIEIGSKGEELAFDKTELTVSAGQTVTIRFKNNSAVQQHNWILVKGGEAEAANIANAGLSAGPAANYLPADKSNIIAESPLANGNETVEVTFTAPAAGTYLYICTVPGHYPLMQGKLVVN = soluble
MKLSLVFLLFVAFAKSADTAPVDFNKIFVTFVEELMDAINQLILEQMGAIRPSTTPLQSIPPITATDAPTTADTTAEPTKAHETTVAQEATSEGAETHETTVGQDTTVRSGESQETTVSQGTTVSQENTVSQETTVSQDTTVSQETTVSQDTTVSQDTTVSQESTVSQETTVSQDTTVSQETSVSHETNVSPDTTVSQESTVSQDTTVSQETTLSQETTVSQETTVSQDTTVSQETTASQDTTVSQDTTVSQDTTVVPQETTVEATKASEATEENGTTAVTPGESDPCDTTEAPTGGSTVGESEPCDTTEASEPTGHTDQAETVTDPASQATASATIIGGVDQTGSTNLEATTEQICKHPTKDSEEEKTDENKDEKTTRAGTNVHRPEREDILK = not soluble
MIKISTRFDAGSVVVKDLTDPSNIRLALRPDNASDFAQWFYFRLQGAAYQNCIMHFENAAEAAYPKGWEGYQACASYDRRNWFRVPTSYENGVLTVNHTPLSNSVYYAYFEPYSEEQHLNLLGDAQGSGLCRIDDLGSTVQGRDINLLTIGNQVESDLKIWITARQHPGETMAEWFIEGLLGRLLDPQDPTARALLDRATFYIVPNMNPDGSALGNLRTNAAGANLNREWENPTVEKSPEVFFVREKMLETGVDLFLDIHGDEGLPFVFVAGTEGVPNYNPRIAALEAQFKNALLNASPDFQDEYGYEKDAPGEANMTLATNWVGNRFNCLAYTLEMPFKDNANLPDDDFGWNGQRSLRLGEAALSAILNVIGDLR = not soluble
DIQMTQSPSSLSASVGDRVTITCRSSQSLVHNNANTYLHWYQQKPGKAPKLLIYKVSNRFSGVPSRFSGSGSGTDFTLTISSLQPEDFATYYCSQNTLVPWTFGQGTKVEIKRTVAAPSVFIFPPSDEQLKSGTASVVCLLNNFYPREAKVQWKVDNALQSGNSQESVTEQDSKDSTYSLSSTLTLSKADYEKHKVYACEVTHQGLSSPVTKSFNRGEC = soluble

stdin: Suppose we examine the sequence MNNDNKRSAGGLGLVGDIGGTNARFALWRGQRLESIEVLACADYPRPELAVRDYLARIGESVANIDSVCLACAGPVGAADFRFTNNHWVINRAAFREELGLDHLLLVNDFSTMAWAASRLGADELVQVRAGSAQADRARLIIGPGTGLGVGSLLPLGGGRWEVLPCEGGHVDLPVTSPRDFALWQGLQARYGHVSAERALSGNGLLALYEISCALDGVAVRASSAAEVGALAMAGDAQADAVLEHFFLWLARVAGNAVLTVGALGGVYITGGIVPRFLERFIASGFAEAFASRGKTSGAYLQDVPVWVMTAEHPGLLGAGVALQQALDAEG ; what soluble on expression in E. coli value has been reported?
stdout: not soluble

###

PROCEDURE_SUMMARY: soluble on expression in E. coli; label from the status in PepcDB or PDB records
READOUT: soluble on expression in E. coli

MGSDKIHHHHHHMISERMERQLDFIVAIDALKDITRQSITTGSRRQENDAEHSWHLAVMAMILSEYAEDQTIDIAKVISMVLIHDLVEIYAGDTYCYDEKGYEDKAEREQEAADRLFNMLPEDQAQRMMSLWQEFEEMETKEAAFAATLDRFQPLLLNYNTEGHTWQRPGITSEKVLKRTEIAKEKVPQLYVYIERLIQRSIERGMLKP = not soluble
MRVVVSIGGSVLAPGLDADQVDAHADAINELTDAGCEVGAVVGGGGVARDYIGTARELGANEIELDDIGVDVTRLNARLLIAALGGDAAPSPAEDYEDAGEAMRRGDIAVMGGVVAGQTTDAVSAALAEYTDADLLLYATSVPGVFSADPNEDADAEHFTRMTAGELVDIIADIEMNAGSSAPVDLLAAKLIERSGVRTIVLDGTDPRRIVDAVRFGEHDGTDVIPDGTDNQMTYWADNQELEHHHHHH = not soluble
MSNLKQLRTRIKSVKSTQKITKAMQLVSASKMAKIKSQIANSNFYIEAVSKMMSAILSIDMYELSIEEQKFFNTVPNKANLLIVMTSQRGLCGTFNYSIIKQVKNDIKELENKGEQIKLIIIGKKGYEALKRQYVNYIDSYFELPKIHDENLMLQVKQKIMSAVENLEVSNCVIYFNKFKNAMTQIMTRQQILPVAKYQDDSMIDNPIVNLVGFGYKERGVKPINNRRATSDIVGESKSIDYNYEYEGESLISNLINLYVNSQINYALLQSRASEEGARMTAMENATNNANDLISKLVLKLNRSRQAIITTELIEIIAGSEVV = not soluble

###

PROCEDURE_SUMMARY: soluble on expression in E. coli; label from the status in PepcDB or PDB records
READOUT: soluble on expression in E. coli

MVTRVLIVGDGDAGTIMANKLRFHTDRRDVDITVVGNSKDHYFKPDGVHISFNMVDYKKSVKPTEFLFNYGVNYIRDTVSRIDVADHSVQTTGGRNLDYDYLIIATGDRFTPEDVPGYAESAKHFYDLPHALELQKEIKGFKGGKVVIGQASIPIMCPPAPYEFTFLLEEYLNFHGLKDKTEIHYIYPLNRVFTIPNVADFVAKRMEERGIITHTLFNVESIDPKNKKIQSLEGESINYDLLVLIPPHRGQKVITDSGLADESGYIDVDKYKLNYKDYDNVFAIGDATNLPVSKAGATAHFEALYLSNRIAAETSGNVYNELYEGDVACTTVTGYEKGLTLYFNYNKPPRANYDSKLDYFLKWQSGDTFFSSMLRGVALEHHHHHH = not soluble
MGSDKIHHHHHHVFIGIETTDPEGLKETGKVQNLREDPLTAVRRIYAHGIDVLGGFIIGFDHDTMATFEHQYRFITDAGIQSAMIGLLMALPRTPLHERMQREGRLLPLDGHADNTCLTTNIAPRSMNIDAMVAAYQELYRRLLTGPEIGRRIRNKMKYLQAPVYGSGYSMGQRAGILARLMVRGIGAGGLSTLVAFLRSFPFLTPSRIPMVISDWIIGLSMKAFAETSLLGRSTQGLNNAATGISTGLRDP = not soluble
GMSAGKTVVIALGGNAMLQAKEKGDYDTQRKNVEIAASEIYKIHKAGYKVVLTSGNGPQVGAIKLQNQAAAGVSPEMPLHVCGAMSQGFIGYMMSQAMDNVFCANNEPANCVTCVTQTLVDPKDQAFTNPTKPVGRFYTEQEAKDLMAANPGKILREDAGRGWRVVVPSPRPLEIVEYGVIKTLIDNNVLVICTNGGGIPCKRENKVISGVDAVIDKDLATSLLAKTLNSDYLMILTDVLNACINYKKPDERKLEEIKLSEILALEKDGHFAAGSMGPKVRAAIEFTQATGKMSIITSLSTAVDALNGKCGTRIIKD = soluble
MNERIFRENTRPVQVGNLTIGGSEELTIQSMTTTKTHDVEATVAEIHRLEEVGCQIVRVACPDERAANALSAIKKRIHIPLVADIHFDYRLALKAIDAGVDKIRINPGNIGRRDRVEKVVNAAKAKNIPIRIGVNAGSLEKKIIQKYGYPTAEGMVESALAHIKILEDLDFYDIIVSLKASDVNLAIEAYDKASRAFNYPLHLGITESGTQFAGGIKSAAGLGAILSLGIGNTLRVSLSADPVEEIKVAREVLKSFGLSSNAAMLISCPTCGRIEIDLIRIANEVENYIATIKAPIKVAVLGCAVNGPGEAREADIGIAGSNGEGLLFRHGKIIRKVPEAIMVEELKKEIDILAEEYFEKKTDLESLR = not soluble

stdin: // returns reported soluble on expression in E. coli for input MIKIAPSILSADFSKLGEEIKDVEKGGADYIHVDVMDGHFVPNITIGPLIVEAIRPITSLPLDVHLMIENPDNYIPTFAKAGADIITVHVEACPHLHRTIQLIKSHGIKAGVVLNPHTPVSVIEHVLEDIDMVLLMTVNPGFGGQKFIHSVLPKIKQVAEMVKERNLEVEIEVDGGVNAETARLCVEAGANVLVAGSAVYNQKDRGEAIRVIRG
stdout: soluble

###

PROCEDURE_SUMMARY: soluble on expression in E. coli; label from the status in PepcDB or PDB records
READOUT: soluble on expression in E. coli

MEDDPVWRFDDRDVILYNIALGATTKQLKYVYENDSDFQVIPTFGHLITFNSGKSQNSFAKLLRNFNPMLLLHGEHYLKVHSWPPPTEGEIKTTFEPIATTPKGTNVVIVHGSKSVDNKSGELIYSNEATYFIRNCQADNKVYADRPAFATNQFLAPKRAPDYQVDVPVSEDLAALYRLSGDRNPLHIDPNFAKGAKFPKPILHGMCTYGLSAKALIDKFGMFNEIKARFTGIVFPGETLRVLAWKESDDTIVFQTHVVDRGTIAINNAAIKLVGDKAKI = soluble
MSGATPVFTEINQIQGTGDKSPLISSGFISDDEYFVQGVVTARGESLLKGFYLQGLNDDFDPNSSEGIFVSTGSAPSLEIQPGALVCVKAKVQEYYGQTQLKPDTNNFLVQGHQAPVSVTELTINENETLAQALERHEGMQVKLTSHSDLRITRNFSFDYASKRNNMVLSHGEPLFKPTQLFAAESPEAIQLAEENAKRQITIESDNKAPNGEVPYFPDFATDSNQDGSADSYLRLGARIEGLEGVIAYSYGQYRLVTTNTISQENIITQAFDEDGLEHHHHHH = soluble

This collection of values is drawn from the DeepSol protein solubility set.
